# experimentSummary: qHTS assay to identify small molecule agonists of the farnesoid-X-receptor (FXR) signaling pathway - cell viability counter screen (AID 743218); also: nearly all actives have a fitted effect of over 45% in size
# testParameters: FXR-bla HEK293T viability, CellTiter-Glo luminescence, 16 h; series mostly up to 62.6 µM
Results filed as inconclusive are left out. Calls of active or inactive are those of the source. Calls follow the shape of the dose curve; as a rule, active = well fitted cell-killing curve with a large enough effect in the repeat runs; inconclusive = weak or mixed curves, or effect the other way; inactive = no such curve, though single readings can be large or run the other way.
Return exactly one item of active, inactive

Consider the worked cases shown below.
Prompt: Tell me the recorded outcome of this test for CC1OC(=O)C(C)OC1=O (centres undefined) .
Response: inactive

Prompt: Recorded test outcome, item `ClCCOCCOCCCl`
Response: inactive

Prompt: GET /call?item= `Nc1ccc([N+](=O)[O-])c(C(F)(F)F)c1` returns the recorded outcome of this test.
Response: inactive

Prompt: Short answer needed: outcome of this test for `C/C=C/C=C/CO` ?
Response: inactive

Prompt: Would you mind telling me which call this test gave `CC(C)(O)c1ccc(CNC(=O)c2cccnc2Oc2ccc(F)cc2)cc1` ?
Response: inactive

More entries:
Prompt: Hello, I am checking results. What call was entered for `c1ccc(C(O[C@H]2CCCN(CCc3ccc4c(c3)OCO4)C2)c2ccccc2)cc1` ?
Response: inactive

Prompt: Could you kindly confirm the outcome this assay logged for `COC(C)(C)CCO` ?
Response: inactive

###

# experimentSummary: A CellTox Green Cytotoxicity Assay to monitor cytotoxicity in HEK293 cells - 40 hour (AID 1224871); also: nearly all actives have a fitted effect of over 45% in size
# testParameters: CellTox Green fluorescence; series mostly up to 76.8 µM
Results filed as inconclusive are left out. Calls of active or inactive are those of the source. Calls come from the whole dose curve; as a rule, active = well fitted activation curve with a large enough effect in the repeat runs; inconclusive = weak or mixed curves; inactive = flat fitted curve, though single readings scatter.
Respond only with the outcome that fits, drawn from Y = active, N = inactive

Please review the following examples before continuing.
Prompt: Tell me the assay call for `CCCCCCCCCOS(=O)(=O)O` please.
Response: N

Prompt: Can you look up the reported call for `COc1ccc2cccc(CCNC(C)=O)c2c1` for me?
Response: N

Prompt: Check the results log: what was the call for `CCCCCCCCO[C@@H]1O[C@H](CO)[C@@H](O)[C@H](O)[C@H]1O` ?
Response: N

Prompt: Lab log entry: `CCOC(=O)C(F)(F)F` — outcome as called in the assay?
Response: N

Prompt: Which outcome was assigned to `NC(=O)C(c1ccccc1)(c1ccccc1)[C@@H]1CCN(CCc2ccc3c(c2)CCO3)C1` in this test?
Response: Y

More entries:
Prompt: I'd appreciate the recorded outcome for CC1(c2ccccc2)OC(C(=O)O)=CC1=O (centres undefined) from this test.
Response: N

Prompt: Tell me the recorded outcome of this test for `CC1=CC=C(C(C)C)CC1` .
Response: N

Prompt: Entry `c1cc(CCCc2ccncc2)ccn1` : call = ?
Response: N

Prompt: Fill in: this test's call for `CCOC(=O)Cc1cccc2ccccc12` is ___
Response: N

Prompt: # lookup: test call for O=CC1CC=CCC1 (centres undefined)
Response: N

Prompt: Look up the recorded call for `CCCCC(=O)OCC(=O)[C@H]1[C@H](C)C[C@H]2[C@@H]3C[C@H](F)C4=CC(=O)C=C[C@]4(C)[C@@]3(F)[C@@H](O)C[C@@]21C` in this test.
Response: N

Prompt: Which result was noted for this molecule in the test: CC[N+]1(CC)CCC(=C(c2ccccc2)c2ccccc2)C1C (centres undefined)
Response: N

Prompt: For `Cc1cc(C(=O)O)ccc1[N+](=O)[O-]` , what call appears in the results of this test?
Response: N

Prompt: Recorded test call requested for `CCn1cc(C(=O)O)c(=O)c2cnc(N3CCNCC3)nc21`
Response: N

Prompt: # fetch the recorded call for `CN(C)C(=O)NC1(c2ccccc2)CCN(CC[C@@]2(c3ccc(F)c(F)c3)CN(C(=O)c3ccccc3)CCO2)CC1` here
Response: N

Prompt: Dear all, I need the recorded test outcome for `CCCCOC(=O)CCCCCCCC(=O)OCCCC` , thank you.
Response: N

Prompt: # outcome recorded in this test, key = CC(C)OC(=O)C(C)N(C(=O)c1ccccc1)c1ccc(F)c(Cl)c1 (centres undefined)
Response: N

Prompt: What classification did CCCCC(CC)CN1C(=O)C2C3C=CC(C3)C2C1=O (centres undefined) end up with in this test?
Response: Y

Prompt: I would be grateful if you could indicate the recorded call for `Nc1ccc(S(=O)(=O)Nc2ccccc2)cc1` .
Response: N

Prompt: # fetch the recorded call for `CCCCCCCCCCCCCCCCOS(=O)(=O)O` here
Response: Y

Prompt: Entry `COc1ccc(S(=O)(=O)N2C(=O)[C@@](c3ccccc3OC)(N3C[C@H](O)C[C@H]3C(=O)N(C)C)c3cc(Cl)ccc32)c(OC)c1` : call = ?
Response: N

Prompt: What did this assay record as the result for `Cc1oc2c(NC(=O)c3c(Cl)cccc3Cl)cccc2c1C(C)(C)O` ?
Response: N

Prompt: What outcome does the record of this test show for CCN(CC)CCOC(=O)C(c1ccccc1)C1CCCCC1 (centres undefined) ?
Response: Y

Prompt: Each molecule tested received a call. Report the one for `Cc1cc(N)c2cc(NC(=O)Nc3ccc4nc(C)cc(N)c4c3)ccc2n1` .
Response: N

###

# experimentSummary: qHTS assay to identify small molecule antagonists of the estrogen receptor alpha (ER-alpha) signaling pathway using the BG1 cell line - cell viability counter screen (AID 743081);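 also: compound given together with 17beta-estradiol as the ER stimulus; nearly all actives have a fitted effect of over 45% in size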
# testParameters: BG1Luc4E2 viability, CellTiter-Fluor, 22 h; series mostly up to 70.3 µM
Inconclusive results are not listed. Active and inactive are the calls of the source. Calls come from the whole dose curve; as a rule, active = well fitted cell-killing curve with a large enough effect in the repeat runs; inconclusive = weak or mixed curves, or effect the other way; inactive = flat fitted curve, though single readings scatter.
Pick one: true (1) = active, false (0) = inactive

Below are worked cases with known answers.
Prompt: Could you please tell me the result logged for `CC(C)(COC(=O)c1ccccc1)COC(=O)c1ccccc1` in this assay?
Response: false (0)

Prompt: What did the test return for `C=CC(=O)OCCOc1ccccc1` ?
Response: false (0)

Prompt: Recorded test call requested for `CCCCCCCCO[C@@H]1O[C@H](CO)[C@@H](O)[C@H](O)[C@H]1O`
Response: false (0)

Prompt: I would be grateful if you could indicate the recorded call for CC(CSC(=O)c1ccccc1)C(=O)N1C[C@@H](Sc2ccccc2)C[C@H]1C(=O)O (stereo not given in full) .
Response: false (0)

Prompt: Query: recorded result category for `CC(=O)[O][Al]` in this test
Response: false (0)

---
Prompt: Please state the recorded outcome for this compound: C=CC1CC2C=CC1C2 (stereo not given)
Response: false (0)

Prompt: Can you look up the reported call for `Cc1[nH]c(C)c(Cl)c(=O)c1Cl` for me?
Response: false (0)

Prompt: In this assay, the call recorded for `Nc1cccc(S(=O)(=O)c2cccc(N)c2)c1` was what?
Response: false (0)

Prompt: What was the test verdict on `CCC(C)(C)CC` ?
Response: false (0)

Prompt: Assay result, entry `CC(C)(CO)[N+](=O)[O-]` — outcome?
Response: false (0)

Prompt: Which result was noted for this compound in the test: C[C@@H](c1ncncc1F)C(O)(Cn1cncn1)c1ccc(F)cc1F (stereo not given in full)
Response: false (0)

Prompt: # fetch the recorded call for `O=C(Nc1ccccc1)c1ccccc1O` here
Response: false (0)

Prompt: Look up the recorded call for `Nc1ccc(S(=O)(=O)Nc2ccccc2)cc1` in this test.
Response: false (0)

Prompt: Hello, I am checking results. What call was entered for `C1CCCNCCC1` ?
Response: false (0)

Prompt: Check the results log: what was the call for `O=C1CCC(=O)O1` ?
Response: false (0)

Prompt: State the result this test recorded for `C=CC(=O)OCCOCCOCCOCCOC(=O)C=C` .
Response: true (1)

###

# experimentSummary: qHTS assay to identify small molecule agonists of H2AX - cell viability counter screen (AID 1224847); also: nearly all actives have a fitted effect of over 30% in size
# testParameters: CHO-K1 viability, CellTiter-Glo luminescence, 3 h; series mostly up to 154 µM
Results filed as inconclusive are left out. Active and inactive are the calls of the source. The call rests on the fitted dose curve.
Returns: one label drawn from T = active, F = inactive

These recorded examples may help you get a feel for the data.
Prompt: Kindly provide the recorded test outcome for the following compound: COc1ccnc(CS(=O)c2nc3ccc(OC(F)F)cc3[nH]2)c1OC (stereo not drawn)
Response: F

Prompt: Test call, this compound: `CC(=O)c1ccc2c(c1)N(CCCN(C)C)c1ccccc1S2`
Response: F

Prompt: Assay result, entry `Nc1ccc(N)c2c1C(=O)c1ccccc1C2=O` — outcome?
Response: T

Prompt: Recorded test call requested for `CCC(=O)O[C@]1(C(=O)CCl)[C@@H](C)C[C@H]2[C@@H]3CCC4=CC(=O)C=C[C@]4(C)[C@@]3(F)[C@@H](O)C[C@@]21C`
Response: F

Prompt: Assay outcome for `O=C(NCCO[N+](=O)[O-])c1cccnc1` : what was it?
Response: F

More entries:
Prompt: // return assay outcome for COc1cc2nc(N(C)CCCNC(=O)C3CCCO3)nc(N)c2cc1OC (stereo not drawn)
Response: F

Prompt: GET /call?item= `COC(C)(C)CCO` returns the recorded outcome of this test.
Response: F

Prompt: Look up the recorded call for COc1cc2nc(N3CCN(C(=O)C4COc5ccccc5O4)CC3)nc(N)c2cc1OC (stereo not drawn) in this test.
Response: F
